Assay Procedure: Plasma and tissue distribution in SD rats
Type: in vivo
Test Conditions: male SD rat, PO 10 mg/kg, Bone Marrow
Metric Name: Tmax (min)
Express your answer in min, writing the number without its unit.

Prompt line: Look at this compound and give its reported Tmax. C[C@@H](c1ccc(Nc2cc(Nc3ncccc3S(C)(=O)=O)ncn2)nc1)N1CC2(COC2)C1
Response line: 30

---

Assay Procedure: Plasma and tissue distribution in SD rats
Format: in vivo
Test Conditions: female; F SD rat, Ovaries
Metric Name: Cmax (ng/mL)
Your answer is read as ng/mL, so omit the unit and give the number.

Prompt line: Requested read-out: Cmax. Entry: C[C@@H](c1ccc(Nc2cc(Nc3ncc(F)cc3S(C)(=O)=O)ncn2)nc1)N1CC2(COC2)C1 [Compound 2]
Response line: 1940

---

Assay Procedure: Plasma and tissue distribution in SD rats
Assay type: in vivo
Test Conditions: female, SD, rat, large intestine, po, 10 mg/kg, female SD rat, PO 10 mg/kg, Large intestine; Tissue AUC0-last/Plasma AUC0-last; read-out: AUC Ratio
Metric Name: Kp
Lab note: jot the number down without any unit.

Prompt line: Please give the measured Kp for this molecule: C[C@@H](c1ccc(Nc2cc(Nc3ncccc3S(C)(=O)=O)ncn2)nc1)N1CC2(COC2)C1
Response line: 11.6

---

Assay Procedure: Plasma and tissue distribution in SD rats
Type: in vivo
Test Conditions: Sprague-Dawley, rat, adipose, oral, SD rat, Adipose; read-out: Tissue/Plasma Ratio (AUCinf)
# Kp per record follows

>  <Mol>
C[C@@H](c1ccc(Nc2cc(Nc3ncc(F)cc3S(C)(=O)=O)ncn2)nc1)N1CC2(COC2)C1

>  <Kp>
4.5

$$$$

Attention now turns to another entry.
Prompt line: Kp lookup needed for C[C@@H](c1ccc(Nc2cc(Nc3ncccc3S(C)(=O)=O)ncn2)nc1)N1CC2(COC2)C1 , thanks.
Response line: 0.59

---

Tested on: IFNα/pSTAT5
Assay Procedure: Whole blood potency (IFNα/pSTAT5), mouse
Assay type: cell-based
Test Conditions: read-out: Cellular Whole Blood Potency IC50 (IFNα/pSTAT5), Mouse
Metric Name: IC50 (nM)
// return numeric value only (unit: nM, not printed)

>  <Compound>
C[C@@H](c1ccc(Nc2cc(Nc3ncccc3S(C)(=O)=O)ncn2)nc1)N1CC2(COC2)C1 [Compound 1]

>  <Unit Label>
nM

>  <IC50>
116

$$$$

// below: IC50 requested for another compound
Prompt line: Entry C[C@@H](c1ccc(Nc2cc(Nc3ncc(F)cc3S(C)(=O)=O)ncn2)nc1)N1CC2(COC2)C1 [Compound 2] has what IC50?
Response line: 64.3

---

Assay Procedure: Plasma and tissue distribution in SD rats
Type: in vivo
Test Conditions: female; F SD rat, Lung; read-out: AUCINF_obs
Metric Name: AUC0-inf (ng·h/mL)
Dear colleague, please return just the value in ng·h/mL, with no unit written.

Prompt line: Need AUC0-inf, item C[C@@H](c1ccc(Nc2cc(Nc3ncc(F)cc3S(C)(=O)=O)ncn2)nc1)N1CC2(COC2)C1
Response line: 29500

---

Assay Procedure: Plasma and tissue distribution in SD rats
Type: in vivo
Test Conditions: female, Sprague-Dawley (SD); F SD rat, Kidney
Metric Name: Cmax (ng/mL)
Express it in ng/mL; write the number only.

Prompt line: Find the recorded Cmax belonging to C[C@@H](c1ccc(Nc2cc(Nc3ncc(F)cc3S(C)(=O)=O)ncn2)nc1)N1CC2(COC2)C1 and report it.
Response line: 9870

Recorded values, source patent US20260048051A1.
